All figures here come from patent US11814371B2.

Assay: Pharmacokinetic test in rats after intravenous and intragastric administration (plasma, LC-MS/MS)
Assay type: in vivo
Details: male, SD, po, rat, intragastric administration (group 2), nominal 30 mg/kg (actual dose in c2), read-out: Plasma drug concentration Cmax
Measured metric: Cmax (µM)
Please reply with the bare figure in µM and do not write the unit itself.

>  <Compound>
COc1ccc(F)c(CNC(=O)c2cn(Cc3ccc(Cn4cc(F)ccc4=O)c(F)c3)nc2C2COC2)c1F [Compound 8]

>  <Measured metric>
Cmax

>  <Measured>
18.6

$$$$

Entry under test: COc1ccc(F)c(CNC(=O)c2cn(Cc3ccc(Cn4ccccc4=O)c(F)c3)nc2C2COC2)c1F [Compound 7] . Its Cmax was 0.813

* * *

Target: recombinant human plasma kallikrein (Human PKal) (Homo sapiens, UniProt P03952)
Construct: Gly20-Ala638 derived from NS0- with a 60-His appendage at the C-terminus; His tag ('60-His' [sic]) (C)
Sequence (P03952 20-638): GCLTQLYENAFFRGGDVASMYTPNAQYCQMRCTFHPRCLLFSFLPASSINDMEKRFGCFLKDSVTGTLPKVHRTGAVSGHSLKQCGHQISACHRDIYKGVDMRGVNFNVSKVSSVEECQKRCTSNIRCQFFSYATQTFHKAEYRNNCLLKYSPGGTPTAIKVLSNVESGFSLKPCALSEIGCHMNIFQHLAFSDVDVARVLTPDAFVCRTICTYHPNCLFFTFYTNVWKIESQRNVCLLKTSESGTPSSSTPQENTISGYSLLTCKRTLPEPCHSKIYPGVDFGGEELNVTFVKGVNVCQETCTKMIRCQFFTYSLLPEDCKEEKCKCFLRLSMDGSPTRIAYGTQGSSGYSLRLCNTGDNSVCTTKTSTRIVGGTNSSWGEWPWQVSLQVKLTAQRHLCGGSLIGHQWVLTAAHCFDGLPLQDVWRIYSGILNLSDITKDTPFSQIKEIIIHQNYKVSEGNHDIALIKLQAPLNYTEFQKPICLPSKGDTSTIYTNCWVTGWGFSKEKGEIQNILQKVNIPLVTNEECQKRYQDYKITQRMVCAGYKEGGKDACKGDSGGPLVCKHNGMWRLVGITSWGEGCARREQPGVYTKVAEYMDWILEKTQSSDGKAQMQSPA
Experiment: Inhibitory effect of test compounds on plasma kallikrein (PKal), fluorogenic substrate Z-FR-AMC
Conditions: 10 µM Z-FR-AMC, 10 min pre-incubation
Structures can show the parent of a compound that is named as a salt.
# note: exactly 0.8 nM is not below, so it is Criterion not met; use Criterion met for IC50 strictly under it

// known answers, use as guide
>  <Compound>
COc1ccc(F)c(CNC(=O)c2cn(Cc3ccc(Cn4cc(F)ccc4=O)cc3)nc2C2COC2)c1F

>  <Answer label>
Criterion met

$$$$
>  <Compound>
COc1ccc(F)c(CNC(=O)c2cn(Cc3ccc(Cn4ccccc4=O)cn3)nc2C2COC2)c1F

>  <Answer label>
Criterion not met

$$$$
>  <Compound>
COc1ccc(F)c(CNC(=O)c2cn(Cc3ccc(Cn4ccccc4=O)cc3)nc2C2CN(S(C)(=O)=O)C2)c1F

>  <Answer label>
Criterion met

$$$$
>  <Compound>
COc1ccc(F)c(CNC(=O)c2cn(Cc3ccc(Cn4ccccc4=O)cc3)nc2C2CN(C(C)=O)C2)c1F

>  <Answer label>
Criterion not met

$$$$
>  <Compound>
COc1ccc(F)c(CNC(=O)c2cn(Cc3ccc(Cn4ccccc4=O)cc3)nc2C2CN(C)C2)c1F [Hydrochloride of compound 12]

>  <Answer label>
Criterion not met

$$$$
>  <Compound>
COc1ccnc(CNC(=O)c2cn(Cc3ccc(Cn4cc(F)ccc4=O)c(F)c3)nc2C2COC2)c1F [Hydrochloride of compound 18]

>  <Answer label>
Criterion not met

$$$$

Then this compound:
Please check: IC50 for COc1ccc(F)c(CNC(=O)c2cn(Cc3ccc(Cn4cc(F)ccc4=O)cc3)nc2C2(C)COC2)c1F , strictly under 0.8 nM or not?
Criterion met

* * *

Assay: Pharmacokinetic test in rats after intravenous and intragastric administration (plasma, LC-MS/MS)
Type: in vivo
Conditions: male, SD, rat, intravenous administration, nominal 1 mg/kg (actual dose in c2), read-out: Clearance rate Cl
Listed compounds paired with reported clearance
Please reply with the bare figure in mL/min/kg and do not write the unit itself.

// known answers, use as guide
>  <Compound>
COc1ccc(F)c(CNC(=O)c2cn(Cc3ccc(Cn4cc(F)ccc4=O)c(F)c3)nc2C2COC2)c1F [Compound 8]

>  <Reading unit>
mL/min/kg

>  <Measured>
12.2

$$$$
>  <Compound>
COc1ccc(Cl)c(CNC(=O)c2cn(Cc3ccc(Cn4cc(F)ccc4=O)cc3)nc2C2COC2)c1F [Compound 3]

>  <Reading unit>
mL/min/kg

>  <Measured>
7.85

$$$$
>  <Compound>
COc1ccc(Cl)c(CNC(=O)c2cn(Cc3ccc(Cn4ccccc4=O)cc3)nc2C2COC2)c1F [Compound 4]

>  <Reading unit>
mL/min/kg

>  <Measured>
8.26

$$$$
>  <Compound>
COc1ccc(F)c(CNC(=O)c2cn(Cc3ccc(Cn4cc(F)ccc4=O)cc3)nc2C2COC2)c1F [Compound 1]

>  <Reading unit>
mL/min/kg

>  <Measured>
7.09

$$$$

Then this compound:
Entry under test: COc1ccc(F)c(CNC(=O)c2cn(Cc3ccc(Cn4ccccc4=O)cc3)nc2C2COC2)c1F [Compound 16] . Its clearance was 7.3

* * *

Experiment: Pharmacokinetic test in rats after intravenous and intragastric administration (plasma, LC-MS/MS)
Type: in vivo
Settings: male, SD, po, rat, intragastric administration (group 2), nominal 30 mg/kg (actual dose in c2), read-out: Curve area (o-inf) AUC0-inf
Measured metric: AUC(0-inf) (µM·h)
Please reply with the bare figure in µM·h and do not write the unit itself.

>  <Structure>
COc1ccc(F)c(CNC(=O)c2cn(Cc3ccc(Cn4cc(F)ccc4=O)c(F)c3)nc2C2COC2)c1F

>  <Reading unit>
µM·h

>  <AUC(0-inf)>
42.5

$$$$

Then this compound:
Entry under test: COc1ccc(F)c(CNC(=O)c2cn(Cc3ccc(Cn4ccccc4=O)c(F)c3)nc2C2COC2)c1F . Its AUC(0-inf) was 1.93

* * *

Test: Pharmacokinetic test in rat eyes after intragastric administration (eye tissue and plasma, LC-MS/MS)
Format: in vivo, male SD rats
Conditions: male, SD, plasma, oral, intragastric 75 mg/kg, 1 hour, read-out: Concentration of compound in Plasma
Measured metric: concentration at 1 h (µM)
Please reply with the bare figure in µM and do not write the unit itself.

Entry under test: COc1ccc(F)c(CNC(=O)c2cn(Cc3ccc(Cn4cc(F)ccc4=O)cc3)nc2C2COC2)c1F [Compound 1] . Its concentration at 1 h was 3.69

* * *

Experiment: Pharmacokinetic test in rats after intravenous and intragastric administration (plasma, LC-MS/MS)
Format: in vivo
Conditions: male, SD, po, rat, intragastric administration (group 1), nominal 2 mg/kg (actual dose in c2), read-out: Peak time Tmax
Measured metric: Tmax (min)
Please reply with the bare figure in min and do not write the unit itself.

// known answers, use as guide
>  <Structure>
COc1ccnc(CNC(=O)c2cn(Cc3ccc(Cn4cc(F)ccc4=O)cc3)nc2C2COC2)c1F

>  <Reading unit>
min

>  <Tmax>
15

$$$$
>  <Structure>
COc1ccc(F)c(CNC(=O)c2cn(Cc3ccc(Cn4cc(F)ccc4=O)nc3)nc2C2COC2)c1F

>  <Reading unit>
min

>  <Tmax>
22.2

$$$$
>  <Structure>
COc1ccc(Cl)c(CNC(=O)c2cn(Cc3ccc(Cn4cc(F)ccc4=O)cc3)nc2C2COC2)c1F

>  <Reading unit>
min

>  <Tmax>
30

$$$$
>  <Structure>
COc1ccc(Cl)c(CNC(=O)c2cn(Cc3ccc(Cn4ccccc4=O)cc3)nc2C2COC2)c1F

>  <Reading unit>
min

>  <Tmax>
22.2

$$$$

Entry under test: COc1ccnc(CNC(=O)c2cn(Cc3ccc(Cn4ccccc4=O)cc3)nc2C2COC2)c1F . Its Tmax was 30

* * *

Experiment: Pharmacokinetic test in rats after intravenous and intragastric administration (plasma, LC-MS/MS)
Type: in vivo
Conditions: male, SD, po, rat, intragastric administration (group 1), nominal 2 mg/kg (actual dose in c2), read-out: Plasma drug concentration Cmax
Measured metric: Cmax

>  <Structure>
COc1ccc(F)c(CNC(=O)c2cn(Cc3ccc(Cn4ccccc4=O)cc3)nc2C2COC2)c1F

>  <Measured metric>
Cmax

>  <Measured>
1140 nM

$$$$

Entry under test: COc1ccc(Cl)c(CNC(=O)c2cn(Cc3ccc(Cn4ccccc4=O)cc3)nc2C2COC2)c1F . Its Cmax was 1550 nM

Entry under test: COc1ccnc(CNC(=O)c2cn(Cc3ccc(Cn4ccccc4=O)cc3)nc2C2COC2)c1F . Its Cmax was 230 nM
